studyTarget: hGIPR (Homo sapiens, UniProt P48546)
Construct: expressed in transfected cells; host or cells: CHO cells carrying a CRE-luciferase reporter gene
Sequence (P48546 22-466): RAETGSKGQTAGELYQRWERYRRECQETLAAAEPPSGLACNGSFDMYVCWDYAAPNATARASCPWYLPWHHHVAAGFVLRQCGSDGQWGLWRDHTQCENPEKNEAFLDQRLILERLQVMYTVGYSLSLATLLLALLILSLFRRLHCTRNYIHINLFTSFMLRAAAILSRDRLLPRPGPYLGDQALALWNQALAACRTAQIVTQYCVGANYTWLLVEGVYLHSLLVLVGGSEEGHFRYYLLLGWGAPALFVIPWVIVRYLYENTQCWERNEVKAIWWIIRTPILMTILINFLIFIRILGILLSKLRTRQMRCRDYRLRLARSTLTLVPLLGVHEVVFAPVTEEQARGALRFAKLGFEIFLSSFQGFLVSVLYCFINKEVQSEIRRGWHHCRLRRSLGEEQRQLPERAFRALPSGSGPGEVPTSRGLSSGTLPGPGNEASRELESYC
protocolSummary: hGIPR CreLuc reporter gene assay in 0.5% and 100% plasma
Format: cell-based
conditionDetails: CreLuc reporter gene assay, 100% human plasma; read-out: hGIPR 100% hP
Starred links: 1 amine or outer side, 2 acyl side, 3 side chain; linkers in the order of their positions; H or OH if unused. Non-standard residues stand in square brackets, D forms with d. Groups on a side chain read outwards from the residue. No end group written: not given here. *: point of attachment. C20 diacid = O=C(O)CCCCCCCCCCCCCCCCCCC(=O)*; C18 diacid = O=C(O)CCCCCCCCCCCCCCCCC(=O)*; γGlu = O=C(O)[C@H](CCC(=O)[*:2])N[*:1]; εLys = N[C@@H](CCCCN[*:1])C(=O)[*:2]; β3hQ = NC(=O)CC[C@H](N)CC(=O)O; AEEA = NCCOCCOCC(=O)O; Aib = CC(C)(N)C(=O)O; Ahx = NCCCCCC(=O)O
# pEC50 per record follows
In simple prose, pEC50 is minus the logarithm base ten of a concentration in moles per litre.

Take a look at these entries with their results.
[[record]]
substance = "Y[Aib]EGTFTSDYSI[Aib]LEKQAQ[Aib]AFVEWLIK([εLys-γGlu-γGlu-γGlu-γGlu-γGlu-γGlu-γGlu-C20 diacid])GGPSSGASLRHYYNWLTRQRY-NH2 [Compound 225]"
studytarget = "hGIPR (Homo sapiens, UniProt P48546)"
valuekind = "pEC50"
resultvalue = 8.91

[[record]]
substance = "H-Y[Aib]EGTFTSDYSI[Aib]LEKQAQ[Aib]AFIEWLIK([AEEA-AEEA-γGlu-γGlu-γGlu-γGlu-C20 diacid])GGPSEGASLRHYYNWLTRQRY-NH2 [Compound 231]"
studytarget = "hGIPR (Homo sapiens, UniProt P48546)"
valuekind = "pEC50"
resultvalue = 8.84

[[record]]
substance = "H-Y[Aib]EGTFTSDYSI[Aib]LEKQAQ[Aib]AFVEWLIK([εLys-γGlu-γGlu-γGlu-γGlu-γGlu-γGlu-C20 diacid])GGPSSGVS[Aib]RHYYNWLTRQRY-NH2 [Compound 38]"
studytarget = "hGIPR (Homo sapiens, UniProt P48546)"
valuekind = "pEC50"
resultvalue = 9.15

[[record]]
substance = "H-Y[Aib]EGTFTSDYSI[Aib]LEKQAQ[Aib]AFVEWLIK([Ahx-γGlu-γGlu-γGlu-γGlu-γGlu-C18 diacid])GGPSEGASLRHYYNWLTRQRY-NH2 [Compound 304]"
studytarget = "hGIPR (Homo sapiens, UniProt P48546)"
valuekind = "pEC50"
resultvalue = 8.63

[[record]]
substance = "H-Y[Aib]EGTFTSDYSI[Aib]LEKQAQ[Aib]AFVEWLIK([εLys-γGlu-γGlu-γGlu-γGlu-γGlu-γGlu-C20 diacid])GGPSSGASLRHYYNL[Aib]TRQRY-NH2 [Compound 79]"
studytarget = "hGIPR (Homo sapiens, UniProt P48546)"
valuekind = "pEC50"
resultvalue = 8.73

[[record]]
substance = "H-Y[Aib]EGTFTSDYSI[Aib]LEKQAQ[Aib]AFVQWLIK([γGlu-γGlu-γGlu-γGlu-γGlu-C18 diacid])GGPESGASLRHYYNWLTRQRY-NH2 [Compound 53]"
studytarget = "hGIPR (Homo sapiens, UniProt P48546)"
valuekind = "pEC50"
resultvalue = 8.86


Tell me reported pEC50 for H-Y[Aib]EGTFTSDYSI[Aib]LEKQAQ[Aib]AFVEWLIK([AEEA-AEEA-γGlu-γGlu-γGlu-C18 diacid])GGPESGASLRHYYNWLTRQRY-NH2 [Compound 166] , tested with hGIPR (Homo sapiens, UniProt P48546).
9.19

// repeat for H-Y[Aib]EGTFTSDYSI[Aib]LEKQAQ[Aib]AFVEWLIK([εLys-γGlu-γGlu-γGlu-γGlu-γGlu-γGlu-C20 diacid])GGPSEGASLRHYYNWLTR[β3hQ]RY-NH2 [Compound 277] and report
9.17

Now this one: H-Y[Aib]EGTFTSDYSI[Aib]LEKQAQ[Aib]AFVQWLIK([εLys-γGlu-γGlu-γGlu-γGlu-γGlu-γGlu-C20 diacid])GGPSSYVSLRHYYNWLTRQRY-NH2 [Compound 15]
8.61

All figures here come from patent US20240247080A1.
